These data points were gathered from ChEMBL document CHEMBL1139577.

# test summary: Half life in dog
# Assay type: ADME, Canis lupus familiaris
# assay setup: in vivo
Collected half-life values appear next to each entry.

| structure notation | half-life [h] |
| --- | --- |
| CC1(C)C[C@@H](O)CN(S(=O)(=O)c2ccc(OCc3ccc(Cl)cc3Cl)cc2)[C@H]1C(=O)NO | 2 |
| C[C@@]1(O)CCCN(S(=O)(=O)c2ccc(OCc3ccc(F)cc3Cl)cc2)[C@H]1C(=O)NO | 4.6 |

---

# test summary: Clearance in rat
# Format: ADME, organism-based
# assay setup: plasma, read-out: Clp
Items are presented alongside their recorded clearance.

| structure notation | clearance / mL/min/kg |
| --- | --- |
| C[C@@]1(O)CCCN(S(=O)(=O)c2ccc(OCc3ccc(F)cc3Cl)cc2)[C@H]1C(=O)NO | 13 |
| CC1(C)C[C@@H](O)CN(S(=O)(=O)c2ccc(OCc3ccc(Cl)cc3Cl)cc2)[C@H]1C(=O)NO | 44 |

---

# study system: Interstitial collagenase (Homo sapiens, UniProt P03956)
# Sequence (P03956 whole entry): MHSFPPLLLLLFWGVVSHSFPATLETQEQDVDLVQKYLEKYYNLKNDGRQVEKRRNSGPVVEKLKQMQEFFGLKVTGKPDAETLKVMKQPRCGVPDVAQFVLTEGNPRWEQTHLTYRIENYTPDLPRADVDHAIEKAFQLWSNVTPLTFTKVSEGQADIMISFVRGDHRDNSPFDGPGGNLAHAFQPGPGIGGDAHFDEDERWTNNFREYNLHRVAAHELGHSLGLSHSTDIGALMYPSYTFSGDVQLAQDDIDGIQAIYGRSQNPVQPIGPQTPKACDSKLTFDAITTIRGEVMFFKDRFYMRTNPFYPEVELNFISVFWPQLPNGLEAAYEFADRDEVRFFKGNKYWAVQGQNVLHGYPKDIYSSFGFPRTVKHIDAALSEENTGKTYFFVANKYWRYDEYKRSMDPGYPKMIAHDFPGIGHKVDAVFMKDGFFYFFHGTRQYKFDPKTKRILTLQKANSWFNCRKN
Threshold 300 nM. IC50 below it: satisfied. IC50 at it or above: not satisfied.

| compound | answer label |
| --- | --- |
| C[C@@]1(O)CCCN(S(=O)(=O)c2ccc(OCc3cnccn3)cc2)[C@H]1C(=O)NO | not satisfied |
| C[C@@]1(O)CCCN(S(=O)(=O)c2ccc(OCc3cccc(F)c3)cc2)[C@H]1C(=O)NO | not satisfied |
| C[C@@]1(O)CCCN(S(=O)(=O)c2ccc(OCc3ccccc3F)cc2)[C@H]1C(=O)NO | satisfied |
| C[C@@]1(O)CCCN(S(=O)(=O)c2ccc(OCc3ccc(F)cc3Cl)cc2)[C@H]1C(=O)NO | not satisfied |
| C[C@@]1(O)CCCN(S(=O)(=O)c2ccc(OCc3ccc(Cl)cc3F)cc2)[C@H]1C(=O)NO | satisfied |
| Cc1c(F)cccc1COc1ccc(S(=O)(=O)N2CCC[C@@](C)(O)[C@@H]2C(=O)NO)cc1 | not satisfied |
| C[C@@]1(O)CCCN(S(=O)(=O)c2ccc(OCc3ccc(F)cc3)cc2)[C@H]1C(=O)NO (stereo in doubt; 17) | not satisfied |
| C[C@@]1(O)CCCN(S(=O)(=O)c2ccc(OCc3ccnc(Cl)c3)cc2)[C@H]1C(=O)NO | not satisfied |
| C[C@@]1(O)CCCN(S(=O)(=O)c2ccc(OCc3ccc(F)cc3)cc2)[C@H]1C(=O)NO (stereo in doubt; 11) | not satisfied |

---

Listing: clearance of selected compounds
# test summary: Clearance in dog
# Assay type: ADME, organism-based, Canis lupus familiaris
# assay setup: plasma, read-out: Clp
property: clearance (mL/min/kg)

| structure notation | experimental result |
| --- | --- |
| CC1(C)C[C@@H](O)CN(S(=O)(=O)c2ccc(OCc3ccc(Cl)cc3Cl)cc2)[C@H]1C(=O)NO | 25 |
| C[C@@]1(O)CCCN(S(=O)(=O)c2ccc(OCc3ccc(F)cc3Cl)cc2)[C@H]1C(=O)NO | 11 |

---

# study system: 72 kDa type IV collagenase (Homo sapiens, UniProt P08253)
# Sequence (P08253 whole entry): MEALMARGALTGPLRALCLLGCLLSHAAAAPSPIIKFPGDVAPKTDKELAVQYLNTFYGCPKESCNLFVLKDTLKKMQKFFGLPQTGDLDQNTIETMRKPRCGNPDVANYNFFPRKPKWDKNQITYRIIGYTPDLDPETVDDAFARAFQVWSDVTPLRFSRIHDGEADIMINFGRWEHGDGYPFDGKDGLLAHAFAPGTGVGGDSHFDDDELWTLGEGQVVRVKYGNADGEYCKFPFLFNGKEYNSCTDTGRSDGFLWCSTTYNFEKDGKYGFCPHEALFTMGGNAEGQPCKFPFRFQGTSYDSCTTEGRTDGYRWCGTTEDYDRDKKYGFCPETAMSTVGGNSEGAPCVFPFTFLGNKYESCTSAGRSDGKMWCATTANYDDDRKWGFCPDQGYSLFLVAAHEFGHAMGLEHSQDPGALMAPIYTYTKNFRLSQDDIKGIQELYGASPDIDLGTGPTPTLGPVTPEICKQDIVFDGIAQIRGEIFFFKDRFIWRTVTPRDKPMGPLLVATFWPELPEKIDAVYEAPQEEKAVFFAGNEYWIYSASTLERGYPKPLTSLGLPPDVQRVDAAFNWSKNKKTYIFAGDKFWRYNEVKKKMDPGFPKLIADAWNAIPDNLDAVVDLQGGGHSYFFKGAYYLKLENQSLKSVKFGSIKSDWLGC
pIC50: −log10 of the molar value.
property: pIC50

| structure notation | experimental result |
| --- | --- |
| C[C@@]1(O)CCCN(S(=O)(=O)c2ccc(OCc3ccc(F)cc3Cl)cc2)[C@H]1C(=O)NO | 8.40 |

---

# study system: Matrix metalloproteinase-9 (Homo sapiens)
# Sequence (P14780 whole entry): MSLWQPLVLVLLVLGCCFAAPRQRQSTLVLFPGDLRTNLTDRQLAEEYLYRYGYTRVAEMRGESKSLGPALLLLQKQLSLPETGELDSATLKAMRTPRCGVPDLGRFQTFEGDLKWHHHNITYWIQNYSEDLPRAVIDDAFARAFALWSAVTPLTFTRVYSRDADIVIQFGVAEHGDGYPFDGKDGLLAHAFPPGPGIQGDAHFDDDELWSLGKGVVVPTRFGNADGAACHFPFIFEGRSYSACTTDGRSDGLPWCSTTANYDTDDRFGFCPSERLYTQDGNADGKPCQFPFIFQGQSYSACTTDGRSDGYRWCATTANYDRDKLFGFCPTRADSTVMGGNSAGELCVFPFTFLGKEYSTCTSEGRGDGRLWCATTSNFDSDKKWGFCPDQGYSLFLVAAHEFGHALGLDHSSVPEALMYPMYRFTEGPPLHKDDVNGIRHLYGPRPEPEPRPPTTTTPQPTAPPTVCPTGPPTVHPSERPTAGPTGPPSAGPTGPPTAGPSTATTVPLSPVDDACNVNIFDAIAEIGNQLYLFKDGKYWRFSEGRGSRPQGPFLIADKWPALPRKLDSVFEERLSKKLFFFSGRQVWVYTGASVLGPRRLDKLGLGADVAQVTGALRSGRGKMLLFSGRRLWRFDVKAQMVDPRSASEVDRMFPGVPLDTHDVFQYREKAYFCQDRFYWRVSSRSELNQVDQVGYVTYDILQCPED

| structure notation | study system | IC50 |
| --- | --- | --- |
| C[C@@]1(O)CCCN(S(=O)(=O)c2ccc(OCc3ccc(F)cc3Cl)cc2)[C@H]1C(=O)NO | Matrix metalloproteinase-9 (Homo sapiens) | 11 nM |

---

Quick reference: half-life of the listed items.
# test summary: Half life in rat
# Format: ADME
# assay setup: in vivo
property: half-life (h)

| structure notation | property | measurement unit | experimental result |
| --- | --- | --- | --- |
| CC1(C)C[C@@H](O)CN(S(=O)(=O)c2ccc(OCc3ccc(Cl)cc3Cl)cc2)[C@H]1C(=O)NO | half-life | h | 2 |
| C[C@@]1(O)CCCN(S(=O)(=O)c2ccc(OCc3ccc(F)cc3Cl)cc2)[C@H]1C(=O)NO | half-life | h | 2 |

---

# study system: UniProt P50281
pIC50: −log10 of the molar value.

| structure notation | pIC50 |
| --- | --- |
| C[C@@]1(O)CCCN(S(=O)(=O)c2ccc(OCc3ccc(F)cc3Cl)cc2)[C@H]1C(=O)NO | 7.08 |

---

# study system: Neutrophil collagenase (Homo sapiens, UniProt P22894)
# Sequence (P22894 whole entry): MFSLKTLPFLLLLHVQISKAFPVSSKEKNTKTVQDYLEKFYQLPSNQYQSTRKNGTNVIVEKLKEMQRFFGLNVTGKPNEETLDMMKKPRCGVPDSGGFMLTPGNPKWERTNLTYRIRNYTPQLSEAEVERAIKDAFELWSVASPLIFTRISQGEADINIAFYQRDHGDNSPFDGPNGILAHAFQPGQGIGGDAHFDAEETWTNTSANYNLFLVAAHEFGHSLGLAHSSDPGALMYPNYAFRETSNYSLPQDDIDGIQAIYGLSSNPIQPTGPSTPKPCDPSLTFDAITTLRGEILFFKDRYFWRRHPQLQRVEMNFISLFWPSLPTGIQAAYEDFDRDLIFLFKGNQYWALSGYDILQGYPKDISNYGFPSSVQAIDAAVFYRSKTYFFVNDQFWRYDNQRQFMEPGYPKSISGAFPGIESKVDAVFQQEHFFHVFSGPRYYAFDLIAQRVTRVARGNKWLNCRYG
# test summary: Inhibitory concentration against MMP-8

| structure notation | IC50 / nM |
| --- | --- |
| C[C@@]1(O)CCCN(S(=O)(=O)c2ccc(OCc3ccc(F)cc3Cl)cc2)[C@H]1C(=O)NO | 1 |

---

# study system: A disintegrin and metalloproteinase with thrombospondin motifs 4 (Homo sapiens)
# Sequence (whole entry): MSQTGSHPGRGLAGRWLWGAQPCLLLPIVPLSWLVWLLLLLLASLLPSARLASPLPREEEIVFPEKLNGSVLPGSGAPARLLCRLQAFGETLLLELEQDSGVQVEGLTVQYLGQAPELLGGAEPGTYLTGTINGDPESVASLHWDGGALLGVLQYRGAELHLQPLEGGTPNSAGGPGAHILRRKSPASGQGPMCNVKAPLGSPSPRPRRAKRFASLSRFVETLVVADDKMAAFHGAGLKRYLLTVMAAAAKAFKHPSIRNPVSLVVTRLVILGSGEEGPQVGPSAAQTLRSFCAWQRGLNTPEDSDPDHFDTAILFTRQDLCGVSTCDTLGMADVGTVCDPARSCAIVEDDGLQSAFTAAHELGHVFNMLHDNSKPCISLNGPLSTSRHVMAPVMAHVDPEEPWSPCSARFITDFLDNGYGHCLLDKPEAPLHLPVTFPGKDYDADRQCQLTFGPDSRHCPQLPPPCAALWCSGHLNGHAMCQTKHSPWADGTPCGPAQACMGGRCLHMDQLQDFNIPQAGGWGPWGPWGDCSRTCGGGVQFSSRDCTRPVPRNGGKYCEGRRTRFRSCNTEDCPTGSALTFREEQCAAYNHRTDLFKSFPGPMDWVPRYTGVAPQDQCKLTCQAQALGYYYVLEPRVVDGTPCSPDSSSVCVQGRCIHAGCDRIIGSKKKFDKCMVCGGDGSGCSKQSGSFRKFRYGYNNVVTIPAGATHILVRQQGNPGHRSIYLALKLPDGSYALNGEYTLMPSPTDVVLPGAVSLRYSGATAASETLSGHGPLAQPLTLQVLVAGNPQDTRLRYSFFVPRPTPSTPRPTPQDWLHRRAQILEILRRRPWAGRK
# test summary: Inhibitory concentration at 500 nM against aggrecanase from porcine chondrocytes using [35S]-sulfate (5 mCi/ml) as radioligand and adding IL-1alpha (5 ng/ml) incubated for 10h
# assay setup: Sus scrofa, target entry is the homologue from another species

| structure notation | study system | inhibition (%) |
| --- | --- | --- |
| C[C@@]1(O)CCCN(S(=O)(=O)c2ccc(OCc3ccncc3)cc2)[C@H]1C(=O)NO | A disintegrin and metalloproteinase with thrombospondin motifs 4 (Homo sapiens) | 8.1 |
| COc1ccccc1COc1ccc(S(=O)(=O)N2CCC[C@@](C)(O)[C@@H]2C(=O)NO)cc1 | A disintegrin and metalloproteinase with thrombospondin motifs 4 (Homo sapiens) | 73 |
| C[C@@]1(O)CCCN(S(=O)(=O)c2ccc(OCc3cnccn3)cc2)[C@H]1C(=O)NO | A disintegrin and metalloproteinase with thrombospondin motifs 4 (Homo sapiens) | 8 |
| C[C@@]1(O)CCCN(S(=O)(=O)c2ccc(OCc3ccccc3C#N)cc2)[C@H]1C(=O)NO | A disintegrin and metalloproteinase with thrombospondin motifs 4 (Homo sapiens) | 55 |

---

# log10 of IC50 per record follows
# test summary: Inhibitory concentration against aggrecanase from porcine chondrocytes using [35S]-sulfate (5 mCi/ml) as radioligand and adding IL-1alpha (5 ng/ml) incubated for 10h
# Set-up: species or system Sus scrofa
property: log10 of IC50 (log10 of the value in nM)

| compound | experimental result |
| --- | --- |
| CCCC[C@]1(O)CCCN(S(=O)(=O)c2ccc(OCc3ccc(F)cc3)cc2)[C@H]1C(=O)NO | 3.30 |
| Cc1ccc(F)cc1COc1ccc(S(=O)(=O)N2CCC[C@@](C)(O)[C@@H]2C(=O)NO)cc1 | 1.18 |
| C[C@@]1(O)CCCN(S(=O)(=O)c2ccc(OCc3ccccc3Cl)cc2)[C@H]1C(=O)NO | 0.57 |
| Cc1ncccc1COc1ccc(S(=O)(=O)N2CCC[C@@](C)(O)[C@@H]2C(=O)NO)cc1 | 1.71 |
| C[C@@]1(O)CCCN(S(=O)(=O)c2ccc(OCc3cccc(F)c3)cc2)[C@H]1C(=O)NO | 1.93 |
| C[C@@]1(O)CCCN(S(=O)(=O)c2ccc(OCc3ccnc(Cl)c3)cc2)[C@H]1C(=O)NO | 1.18 |
| Cc1cc(F)ccc1COc1ccc(S(=O)(=O)N2CCC[C@@](C)(O)[C@@H]2C(=O)NO)cc1 | 0.67 |
| C[C@@]1(O)CCCN(S(=O)(=O)c2ccc(OCc3cccc4ccncc34)cc2)[C@H]1C(=O)NO | 1.23 |
| CC[C@@]1(O)CCCN(S(=O)(=O)c2ccc(OCc3ccc(F)cc3)cc2)[C@H]1C(=O)NO | 2.70 |
| C[C@@]1(O)CCCN(S(=O)(=O)c2ccc(OCc3cccc(Cl)c3)cc2)[C@H]1C(=O)NO | 1.89 |
| Cc1ccccc1COc1ccc(S(=O)(=O)N2CCC[C@@](C)(O)[C@@H]2C(=O)NO)cc1 | 0.84 |
| C[C@@]1(O)CCCN(S(=O)(=O)c2ccc(OCc3ccc(Cl)cc3F)cc2)[C@H]1C(=O)NO | 0.90 |
| Cc1c(F)cccc1COc1ccc(S(=O)(=O)N2CCC[C@@](C)(O)[C@@H]2C(=O)NO)cc1 | 1.04 |
| C[C@@]1(O)CCCN(S(=O)(=O)c2ccc(OCc3ccccc3F)cc2)[C@H]1C(=O)NO | 1.15 |
| C[C@@]1(O)CCCN(S(=O)(=O)c2ccc(OCc3ccc(F)cc3Cl)cc2)[C@H]1C(=O)NO | 0.18 |
| C[C@@]1(O)CCCN(S(=O)(=O)c2ccc(OCc3ccc(F)cc3)cc2)[C@H]1C(=O)NO (stereo in doubt; 11) | 2.08 |
| C[C@@]1(O)CCCN(S(=O)(=O)c2ccc(OCc3cccc4cccnc34)cc2)[C@H]1C(=O)NO | 1.28 |
| CC[C@]1(O)CCCN(S(=O)(=O)c2ccc(OCc3ccc(F)cc3)cc2)[C@H]1C(=O)NO | 2.69 |
